Test system: P. aeruginosa (Pa, ATCC 27853)
Assay: microbe, parasite or virus in culture
Type: cell-based, Pseudomonas aeruginosa
Conditions: ATCC 27853, 24 h
Description: All cyclic and linear peptides were screened for antibacterial activity against four Gram-positive strains: B. subtilis (Bs, ATCC 23857), C. glutamicum (Cg, ATCC 13032), S. aureus (Sa, ATCC 9144) and S. epidermidis RP62A (Se, ATCC 35984), and two Gram-negative strains: E. coli (Ec, ATCC 25922) and P. aeruginosa (Pa, ATCC 27853). The activity was assessed using a broth microdilution assay according to a modified CLSI-based method. […]
Where a SMILES comes first, the peptide text is derived from it. Bridges are numbered along the chain shown (N, C = ends). The star is where a group is joined. Lauroyl = CCCCCCCCCCCC(=O)*; Decanoyl = CCCCCCCCCC(=O)*; Octanoyl = CCCCCCCC(=O)*
Assign Antimicrobial Activity (MIC) Gram − Pa to each entry below.
One number for each entry, in µg/mL.

// known answers, use as guide
CCCCCCCCCCCC(=O)N[C@@H](CS)C(=O)NCC(=O)N[C@@H](CCCCN)C(=O)N[C@@H](CCCCN)C(=O)N[C@@H](Cc1c[nH]c2ccccc12)C(=O)N[C@@H](Cc1c[nH]c2ccccc12)C(=O)NCC(=O)N[C@@H](Cc1c[nH]c2ccccc12)C(=O)N[C@@H](CCCCN)C(=O)N[C@@H](CS)C(=O)N[C@@H](CCCCN)C(=O)N[C@@H](CC(C)C)C(N)=O [Peptide C12-Turg-2, C12- CGKKWWGWKC KL-NH2] (Lauroyl-CGKKWWGWKCKL-NH2) ... 32
CC(C)C[C@H](NC(=O)[C@H](CCCNC(=N)N)NC(=O)[C@@H]1CSSC[C@H](N)C(=O)NCC(=O)N[C@@H](CCCNC(=N)N)C(=O)N[C@@H](CCCNC(=N)N)C(=O)N[C@@H](Cc2c[nH]c3ccccc23)C(=O)NCC(=O)N[C@@H](Cc2c[nH]c3ccccc23)C(=O)N[C@@H](Cc2c[nH]c3ccccc23)C(=O)N[C@@H](CCCNC(=N)N)C(=O)N1)C(N)=O [cTurg-6] (H-CGRRWGWWRCRL-NH2; disulfide 1-10; N-terminus assumed) ... 16
CCCCCCCC(=O)N[C@H]1CSSC[C@@H](C(=O)N[C@@H](CCCCN)C(=O)N[C@@H](CC(C)C)C(N)=O)NC(=O)[C@H](CCCCN)NC(=O)[C@H](Cc2c[nH]c3ccccc23)NC(=O)CNC(=O)[C@H](Cc2c[nH]c3ccccc23)NC(=O)[C@H](Cc2c[nH]c3ccccc23)NC(=O)[C@H](CCCCN)NC(=O)[C@H](CCCCN)NC(=O)CNC1=O [Peptide C8-cTurg-2, C8- (CGKKWWGWKC)KL-NH2] (Octanoyl-CGKKWWGWKCKL-NH2; disulfide 1-10) ... 8
CCCCCCCCCC(=O)N[C@@H](CS)C(=O)NCC(=O)N[C@@H](CCCCN)C(=O)N[C@@H](CCCCN)C(=O)N1CCC[C@H]1C(=O)NCC(=O)NCC(=O)N[C@@H](Cc1c[nH]c2ccccc12)C(=O)N[C@@H](CCCCN)C(=O)N[C@@H](CS)C(=O)N[C@@H](CCCCN)C(=O)N[C@@H](CC(C)C)C(N)=O [Peptide C10-Turg-1, C10- CGKKPGGWKC KL-NH2] (Decanoyl-CGKKPGGWKCKL-NH2) ... 32

Asked: Param item = CCCCCCCCCCCC(=O)N[C@@H](CS)C(=O)NCC(=O)N[C@@H](CCCCN)C(=O)N[C@@H](CCCCN)C(=O)N1CCC[C@H]1C(=O)NCC(=O)NCC(=O)N[C@@H](Cc1c[nH]c2ccccc12)C(=O)N[C@@H](CCCCN)C(=O)N[C@@H](CS)C(=O)N[C@@H](CCCCN)C(=O)N[C@@H](CC(C)C)C(N)=O [Peptide C12-Turg-1, C12- CGKKPGGWKC KL-NH2] (Lauroyl-CGKKPGGWKCKL-NH2) ; retrieve measured Antimicrobial Activity (MIC) Gram − Pa.
Given back: 16

====

test system: S. epidermidis RP62A (Se, ATCC 35984); experiment: microbe, parasite or virus in culture; format: cell-based, Staphylococcus epidermidis; conditions: ATCC 35984, 24 h
Where a SMILES comes first, the peptide text is derived from it. Bridges are numbered along the chain shown (N, C = ends). The star is where a group is joined. Decanoyl = CCCCCCCCCC(=O)*; Octanoyl = CCCCCCCC(=O)*
Measurement kind: Antimicrobial Activity (MIC) Gram + Se
Number first, unit second.

CC(C)C[C@H](NC(=O)[C@H](CCCCN)NC(=O)[C@@H]1CSSC[C@H](N)C(=O)NCC(=O)N[C@@H](CCCCN)C(=O)N[C@@H](CCCCN)C(=O)N[C@@H](Cc2c[nH]c3ccccc23)C(=O)NCC(=O)N[C@@H](Cc2c[nH]c3ccccc23)C(=O)N[C@@H](Cc2c[nH]c3ccccc23)C(=O)N[C@@H](CCCCN)C(=O)N1)C(N)=O [cTurg-3] (H-CGKKWGWWKCKL-NH2; disulfide 1-10; N-terminus assumed) ... 16 µg/mL
CCCCCCCCCC(=O)N[C@@H](CS)C(=O)NCC(=O)N[C@@H](CCCCN)C(=O)N[C@@H](CCCCN)C(=O)N[C@@H](Cc1c[nH]c2ccccc12)C(=O)N[C@@H](Cc1c[nH]c2ccccc12)C(=O)NCC(=O)N[C@@H](Cc1c[nH]c2ccccc12)C(=O)N[C@@H](CCCCN)C(=O)N[C@@H](CS)C(=O)N[C@@H](CCCCN)C(=O)N[C@@H](CC(C)C)C(N)=O [Peptide C10-Turg-2, C10- CGKKWWGWKC KL-NH2] (Decanoyl-CGKKWWGWKCKL-NH2) ... 8 µg/mL

List the reported Antimicrobial Activity (MIC) Gram + Se of each molecule below.
1. CCCCCCCC(=O)N[C@@H](CS)C(=O)NCC(=O)N[C@@H](CCCCN)C(=O)N[C@@H](CCCCN)C(=O)N[C@@H](Cc1c[nH]c2ccccc12)C(=O)N[C@@H](Cc1c[nH]c2ccccc12)C(=O)NCC(=O)N[C@@H](Cc1c[nH]c2ccccc12)C(=O)N[C@@H](CCCCN)C(=O)N[C@@H](CS)C(=O)N[C@@H](CCCCN)C(=O)N[C@@H](CC(C)C)C(N)=O [Peptide C8-Turg-2, C8- CGKKWWGWKC KL-NH2] (Octanoyl-CGKKWWGWKCKL-NH2)
2. CC(C)C[C@H](NC(=O)[C@H](CCCNC(=N)N)NC(=O)[C@@H]1CSSC[C@H](N)C(=O)NCC(=O)N[C@@H](CCCNC(=N)N)C(=O)N[C@@H](CCCNC(=N)N)C(=O)N[C@@H](Cc2c[nH]c3ccccc23)C(=O)N[C@@H](Cc2c[nH]c3ccccc23)C(=O)NCC(=O)N[C@@H](Cc2c[nH]c3ccccc23)C(=O)N[C@@H](CCCNC(=N)N)C(=O)N1)C(N)=O [cTurg-5] (H-CGRRWWGWRCRL-NH2; disulfide 1-10; N-terminus assumed)
3. CCCCCCCC(=O)N[C@H]1CSSC[C@@H](C(=O)N[C@@H](CCCCN)C(=O)N[C@@H](CC(C)C)C(N)=O)NC(=O)[C@H](CCCCN)NC(=O)[C@H](Cc2c[nH]c3ccccc23)NC(=O)CNC(=O)[C@H](Cc2c[nH]c3ccccc23)NC(=O)[C@H](Cc2c[nH]c3ccccc23)NC(=O)[C@H](CCCCN)NC(=O)[C@H](CCCCN)NC(=O)CNC1=O [Peptide C8-cTurg-2, C8- (CGKKWWGWKC)KL-NH2] (Octanoyl-CGKKWWGWKCKL-NH2; disulfide 1-10)

Given back:
8 µg/mL
8 µg/mL
4 µg/mL

====

Tested on: A. pullulans (Ap)
Experiment: microbe, parasite or virus in culture
Type: cell-based, Aurobasidium pollulans
Conditions: 48 h
Procedure: The synthesized peptides were screened for antifungal activity against the molds A. pullulans (Ap) and Rhodotorula sp. […] The microtiter plates containing the fungal spores and the test peptides were incubated at room temperature for 48 h and OD600 was recorded using a Synergy H1 Hybrid microplate reader system (BioTek, Winooski, VT, USA). […]
Where a SMILES comes first, the peptide text is derived from it. The star is where a group is joined. Decanoyl = CCCCCCCCCC(=O)*
Measurement kind: Antimicrobial Activity (MIC) Fungi Ap (µg/mL)
One number for each entry, in µg/mL.

Asked: Recall the recorded Antimicrobial Activity (MIC) Fungi Ap for CCCCCCCCCC(=O)N[C@@H](CS)C(=O)NCC(=O)N[C@@H](CCCNC(=N)N)C(=O)N[C@@H](CCCNC(=N)N)C(=O)N[C@@H](Cc1c[nH]c2ccccc12)C(=O)NCC(=O)N[C@@H](Cc1c[nH]c2ccccc12)C(=O)N[C@@H](Cc1c[nH]c2ccccc12)C(=O)N[C@@H](CCCNC(=N)N)C(=O)N[C@@H](CS)C(=O)N[C@@H](CCCNC(=N)N)C(=O)N[C@@H](CC(C)C)C(N)=O [Peptide C10-Turg-6, C10- CGRRWGWWRC RL-NH2] (Decanoyl-CGRRWGWWRCRL-NH2) with A. pullulans (Ap) and state it.
Given back: 128

Source of measurements: paper PMC9696794
